- SYSTEM: T1, CRBN, Q96SW2;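 also: pooled lentiviral library of zinc finger degron-EGFP fusions in mCherry-positive Jurkat cells, FACS-sorted after compound exposure, with degron abundance counted by next-generation sequencing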
- T1 chain: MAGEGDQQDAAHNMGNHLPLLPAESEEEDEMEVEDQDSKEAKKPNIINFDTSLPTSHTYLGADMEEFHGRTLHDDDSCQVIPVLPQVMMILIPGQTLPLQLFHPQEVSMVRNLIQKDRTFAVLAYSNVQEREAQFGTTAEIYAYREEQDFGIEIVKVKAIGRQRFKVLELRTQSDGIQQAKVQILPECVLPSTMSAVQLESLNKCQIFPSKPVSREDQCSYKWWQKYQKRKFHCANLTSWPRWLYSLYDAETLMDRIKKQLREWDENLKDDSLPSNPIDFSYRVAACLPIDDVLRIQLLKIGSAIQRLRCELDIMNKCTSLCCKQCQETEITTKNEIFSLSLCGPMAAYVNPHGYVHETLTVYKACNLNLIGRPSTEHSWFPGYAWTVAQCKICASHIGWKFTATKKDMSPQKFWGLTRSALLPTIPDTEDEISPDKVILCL
- MEASUREMENT PROTOCOL: log2 fold change of degron read counts, EGFP-low vs EGFP+ sorted cells (limma voom), compound-induced degradation; higher = more compound-induced degradation of the degron-EGFP fusion; degrons are variants of IKZF1/3 zinc finger 2; compound dose not given here
- STATED CONDITIONS: Jurkat; 18 h; compound: thalidomide
In all, about 8,300 sequences were measured (“log2 fold change of degron read counts, EGFP-low vs EGFP+ sorted cells (limma voom), compound-induced degradation”: median about -1.1, highest 2% from about 3.2 on). For the sample, the highest values were picked, then their nearest neighbours and some sequences at random.
RECORDED ENDPOINT: log2 fold change of degron read counts

FECDVCGADFTQKGNLLRHIKL [46F_47E_49D_50V_52G_53A_54D_55F_67L_, Q9UKT9]; -2.31
FFCDVCGAMFTQKGNLLRHIKL [46F_47F_49D_50V_52G_53A_54M_55F_67L_, Q9UKT9]; -2.16
FGCPQCGAMFTQKGNLLRHIKL [46F_47G_49P_50Q_52G_53A_54M_55F_67L_, Q9UKT9]; -2.04

Exercise: May I ask what log2 fold change of degron read counts has been recorded for FSCNQCGRTFTQKGNLLRHIKL [46F_47S_49N_50Q_52G_53R_54T_55F_67L_, Q9UKT9] ?
Key: -2.34

Exercise: Form field: reported log2 fold change of degron read counts of FRCEQCGAMFTQKGNLLRHIKL [46F_47R_49E_50Q_52G_53A_54M_55F_67L_, Q9UKT9]
Key: -1.56

Exercise: Item under review: FECPQCGAFFTQKGNLLRHIKL [46F_47E_49P_50Q_52G_53A_54F_55F_67L_, Q9UKT9] . Reported log2 fold change of degron read counts?
Key: -1.91

Exercise: # lookup: log2 fold change of degron read counts of FRCPVCGAVFTQKGNLLRHIKL [46F_47R_49P_50V_52G_53A_54V_55F_67L_, Q9UKT9]
Key: 1.18

Value source: the supplement of paper PMC12645437
